Recorded T½ Max (seconds), coagulation of human plasma by entry
Target: Innovin, lyophilized recombinant human tissue factor combined with phospholipids (human, UniProt P13726 33-295, limits assumed); also: test concentration or dose not given here
Assay: cell-based or functional assay
Express it in s; write the number only.

M1594 (antibody, V domains shown, complete MAb; FR4 is its own entry; also called H158/L3) VH: EVQLVQSGAEVKKPGESLRISCKGSGYTFPPYWIEWVRQMPGKGLEWMGDILPGTGYTVYSPSFQGHVTISADKSISTAYLQWSSLKASDTAMYYCARSGYYGNSGFAYWGQGTLVTVSS VL: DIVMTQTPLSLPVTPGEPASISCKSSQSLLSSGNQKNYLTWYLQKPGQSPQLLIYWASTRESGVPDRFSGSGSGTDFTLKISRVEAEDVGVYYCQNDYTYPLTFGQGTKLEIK : 165
M1610 (antibody, V domains shown, complete MAb; FR4 is its own entry; also called H115/L3) VH: EVQLVQSGAEVKKPGESLRISCKGSGYTFAPYWIEWVRQMPGKGLEWMGDIIPGTGYTTYSPSFQGHVTISADKSISTAYLQWSSLKASDTAMYYCARSGYYGNSGFAYWGQGTLVTVSS VL: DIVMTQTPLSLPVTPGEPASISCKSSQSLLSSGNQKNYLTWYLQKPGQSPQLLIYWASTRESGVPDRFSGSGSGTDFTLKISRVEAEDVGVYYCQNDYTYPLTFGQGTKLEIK : 164
M1604 (antibody, V domains shown, complete MAb; FR4 is its own entry; also called H138/L3) VH: EVQLVQSGAEVKKPGESLRISCKGSGYTFAPYWIEWVRQMPGKGLEWMGDILPGTGYTWYSPSFQGHVTISADKSISTAYLQWSSLKASDTAMYYCARSGYYGNSGFAYWGQGTLVTVSS VL: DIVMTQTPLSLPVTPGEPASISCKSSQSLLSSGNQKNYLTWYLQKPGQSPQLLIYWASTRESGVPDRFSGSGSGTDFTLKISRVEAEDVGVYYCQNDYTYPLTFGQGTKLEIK : 165
M1592 (antibody, V domains shown, complete MAb; FR4 is its own entry; also called H165/L3) VH: EVQLVQSGAEVKKPGESLRISCKGSGYTFSPHWIEWVRQMPGKGLEWMGDILPGSGYTIYSPSFQGHVTISADKSISTAYLQWSSLKASDTAMYYCARSGYYGNSGFAYWGQGTLVTVSS VL: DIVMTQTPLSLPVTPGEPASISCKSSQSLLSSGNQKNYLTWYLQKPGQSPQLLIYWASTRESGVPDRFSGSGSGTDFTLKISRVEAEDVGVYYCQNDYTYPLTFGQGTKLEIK : 163
M1640 (antibody, V domains shown, complete MAb; FR4 is its own entry; also called H22/L327) VH: EVQLVQSGAEVKKPGESLRISCKGSGYTFITYWIEWVRQMPGKGLEWMGDILPGSGSTNYSPSFQGHVTISADKSISTAYLQWSSLKASDTAMYYCARSGYYGNSGFAYWGQGTLVTVSS VL: DIVMTQTPLSLPVTPGEPASISCKSSQSLLPSWNQSNYLTWYLQKPGQSPQLLIYWASTRESGVPDRFSGSGSGTDFTLKISRVEAEDVGVYYCQNDFTYPLTFGQGTKLEIK : 168
M1647 (antibody, V domains shown, complete MAb; FR4 is its own entry; also called H171/L320) VH: EVQLVQSGAEVKKPGESLRISCKGSGYTFAPYWIEWVRQMPGKGLEWMGDILPGTGFTTYSPSFQGHVTISADKSISTAYLQWSSLKASDTAMYYCARSGYYGNSGFAYWGQGTLVTVSS VL: DIVMTQTPLSLPVTPGEPASISCKSSQSLLYSGNQRNYLTWYLQKPGQSPQLLIYWASTRSSGVPDRFSGSGSGTDFTLKISRVEAEDVGVYYCQNDDTYPMTFGQGTKLEIK : 160
M26 (antibody, V domains shown, complete MAb; FR4 is its own entry; also called H17/L5) VH: QVQLVQSGAEVKKPGASVKVSCKASGYTFITYWIEWVRQAPGQRLEWMGDILPGSGSTNYNENFKGRVTITRDTSASTAYMELSSLRSEDTAVYYCARSGYYGNSGFAYWGQGTLVTVSS VL: DIVMTQTPLSLSVTPGQPASISCKSSQSLLSSGNQKNYLTWYLQKPGQPPQLLIYWASTRESGVPDRFSGSGSGTDFTLKISRVEAEDVGVYYCQNDYTYPLTFGQGTKLEIK : 186
M1601 (antibody, V domains shown, complete MAb; FR4 is its own entry; also called H105/L3) VH: EVQLVQSGAEVKKPGESLRISCKGSGYTFGPYWIEWVRQMPGKGLEWMGDILPGTGYTVYSPSFQGHVTISADKSISTAYLQWSSLKASDTAMYYCARSGYYGNSGFAYWGQGTLVTVSS VL: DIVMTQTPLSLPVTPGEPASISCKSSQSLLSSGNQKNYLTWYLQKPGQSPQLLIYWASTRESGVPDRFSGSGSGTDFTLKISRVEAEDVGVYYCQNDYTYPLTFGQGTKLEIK : 180

Problem: Provide measured T½ Max (seconds), coagulation of human plasma value, entry: M9 (antibody, V domains shown, complete MAb; FR4 is its own entry; also called H15/L2) VH: EVQLVQSGAEVKKPGESLRISCKGSGYTFITYWIEWVRQMPGKGLEWMGDILPGSGSTNYNENFKGHVTISADKSISTAYLQWSSLKASDTAMYYCARSGYYGNSGFAYWGQGTLVTVSS VL: DIVMTQSPDSLAVSLGERATINCKSSQSLLSSGNQKNYLTWYQQKPGQPPKLLIYWASTRESGVPDRFSGSGSGTDFTLTISSLQAEDVAVYYCQNDYTYPLTFGQGTKLEIK
Solution: 198

Problem: Could you please provide reported T½ Max (seconds), coagulation of human plasma for M68 (antibody, V domains shown, complete MAb; FR4 is its own entry; also called H23/L5) VH: QVQLVQSGAEVKKPGSSVKVSCKASGYTFITYWIEWVRQAPGQGLEWMGDILPGSGSTNYAQKFQGRVTITADESTSTAYMELSSLRSEDTAVYYCARSGYYGNSGFAYWGQGTLVTVSS VL: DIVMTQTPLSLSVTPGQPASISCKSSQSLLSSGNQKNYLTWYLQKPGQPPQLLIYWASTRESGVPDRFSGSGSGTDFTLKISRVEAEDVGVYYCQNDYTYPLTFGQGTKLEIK ? Thanks!
Solution: 207
